This listing pairs compounds with measured pIC50.
# Tested on: A-431
# measurement_notes: Antiproliferative activity against human A431 cells after 72 hrs by MTT assay
# Format: functional, cell-based
# measurement_conditions: A-431, 72 h
pIC50: −log10 of the molar value.

Here are 2 compounds together with their reported answers.
C[C@@H](Nc1ncnc2ccc(NC(=O)NCCN3CCN(C)CC3)cc12)c1ccccc1    < 5.00
CN1CCN(CCNC(=O)Nc2ccc3ncnc(Nc4cccc(C(F)(F)F)c4)c3c2)CC1    < 5.00

Per the records, this compound ( O=C(Nc1ccc(CN2CCOCC2)cc1)Nc1ccc2ncnc(Nc3cccc(C(F)(F)F)c3)c2c1 ) has pIC50 equal to 5.07

* * *

# System: A-431
# measurement_notes: Antiproliferative activity against human A431 cells after 72 hrs by MTT assay
# Type: functional, cell-based
# measurement_conditions: A-431, 72 h
pIC50: −log10 of the molar value.
value_type: pIC50

COc1ccc(Nc2ncnc3ccc(NC(=O)Nc4ccc(CN5CCN(C)CC5)cc4)cc23)cc1Cl    5.70
COc1ccc(NC(=O)Nc2ccc3ncnc(Nc4cccc(C(F)(F)F)c4)c3c2)cc1    5.31

I = COC(=O)c1cccc(Nc2ncnc3ccc(NC(=O)Nc4ccc(CN5CCN(C)CC5)cc4)cc23)c1
II = CN(C)Cc1ccc(NC(=O)Nc2ccc3ncnc(Nc4cccc(C(F)(F)F)c4)c3c2)cc1
Request: Which entry shows the lesser value of pIC50 here, I or II ? The response must carry the label of the picked entry.
Result: I

* * *

# System: A-431
# measurement_notes: Antiproliferative activity against human A431 cells after 72 hrs by MTT assay
# Type: functional, cell-based
# measurement_conditions: A-431, 72 h
value_type: IC50 (µM)

Here are 4 molecules together with their reported answers.
CN1CCN(Cc2ccc(NC(=O)Nc3ccc4ncnc(Nc5ccc(F)c(Cl)c5)c4c3)cc2)CC1    4
O=C(Nc1ccc(CN2CCCC2)cc1)Nc1ccc2ncnc(Nc3cccc(C(F)(F)F)c3)c2c1    1.36
CN1CCN(c2ccc(NC(=O)Nc3ccc4ncnc(Nc5cccc(C(F)(F)F)c5)c4c3)cc2)CC1    2.2
CCN(CC)Cc1ccc(NC(=O)Nc2ccc3ncnc(Nc4cccc(C(F)(F)F)c4)c3c2)cc1    3.98

1 = O=C(Nc1cccc(CN2CCCC2)c1)Nc1ccc2ncnc(Nc3cccc(C(F)(F)F)c3)c2c1
2 = C#Cc1cccc(Nc2ncnc3ccc(NC(=O)Nc4ccc(CN5CCN(C)CC5)cc4)cc23)c1
3 = CN1CCN(Cc2ccc(NC(=O)Nc3ccc4ncnc(Nc5ccc(OCc6cccc(F)c6)c(Cl)c5)c4c3)cc2)CC1
Request: Please produce an ascending ranking of these molecules based on IC50. To answer, write out the labels according to the requested order.
Result: 3, 1, 2

* * *

pIC50: −log10 of the molar value.
Let's go through some pIC50 measurements on UniProt:P00533 together.
Sequence (P00533 whole entry): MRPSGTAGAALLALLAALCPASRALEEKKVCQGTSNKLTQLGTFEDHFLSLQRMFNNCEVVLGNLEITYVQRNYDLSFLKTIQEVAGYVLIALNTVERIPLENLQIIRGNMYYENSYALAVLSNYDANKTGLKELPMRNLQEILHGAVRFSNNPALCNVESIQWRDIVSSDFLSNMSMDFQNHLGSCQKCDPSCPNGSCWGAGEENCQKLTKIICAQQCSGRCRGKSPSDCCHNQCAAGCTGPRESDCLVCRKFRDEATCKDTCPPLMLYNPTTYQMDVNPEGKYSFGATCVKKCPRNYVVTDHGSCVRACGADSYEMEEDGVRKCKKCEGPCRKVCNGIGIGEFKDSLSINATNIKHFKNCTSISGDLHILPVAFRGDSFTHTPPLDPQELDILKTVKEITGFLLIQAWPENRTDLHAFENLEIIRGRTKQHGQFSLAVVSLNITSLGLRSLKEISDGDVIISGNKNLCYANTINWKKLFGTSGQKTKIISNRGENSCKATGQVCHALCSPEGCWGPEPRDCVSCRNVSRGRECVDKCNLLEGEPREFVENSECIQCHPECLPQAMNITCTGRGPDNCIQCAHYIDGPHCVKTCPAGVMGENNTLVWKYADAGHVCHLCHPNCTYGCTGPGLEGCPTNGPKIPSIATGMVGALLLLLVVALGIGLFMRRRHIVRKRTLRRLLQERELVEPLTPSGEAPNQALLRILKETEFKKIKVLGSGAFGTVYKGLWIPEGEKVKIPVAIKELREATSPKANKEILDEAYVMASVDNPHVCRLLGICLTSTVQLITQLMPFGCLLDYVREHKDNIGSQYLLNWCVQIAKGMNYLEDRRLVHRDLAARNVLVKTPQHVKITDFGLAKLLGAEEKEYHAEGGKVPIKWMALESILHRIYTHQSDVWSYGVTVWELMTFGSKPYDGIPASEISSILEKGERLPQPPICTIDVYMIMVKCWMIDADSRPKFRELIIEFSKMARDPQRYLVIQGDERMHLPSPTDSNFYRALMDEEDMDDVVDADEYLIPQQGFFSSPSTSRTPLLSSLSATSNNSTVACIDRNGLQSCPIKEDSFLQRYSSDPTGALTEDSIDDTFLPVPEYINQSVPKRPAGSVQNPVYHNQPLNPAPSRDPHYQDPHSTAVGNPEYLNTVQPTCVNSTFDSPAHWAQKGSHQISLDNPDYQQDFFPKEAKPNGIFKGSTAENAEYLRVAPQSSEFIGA
value_type: pIC50

O=C(Nc1ccc(CN2CCCC2)cc1)Nc1ccc2ncnc(Nc3cccc(C(F)(F)F)c3)c2c1    8.39
O=C(Nc1ccc(CN2CCCCC2)cc1)Nc1ccc2ncnc(Nc3cccc(C(F)(F)F)c3)c2c1    8.30

* * *

# System: A-431
# measurement_notes: Antiproliferative activity against human A431 cells after 72 hrs by MTT assay
# Type: functional, cell-based
# measurement_conditions: A-431, 72 h
This listing pairs molecules with measured IC50.

CN1CCN(C(=O)c2ccc(NC(=O)Nc3ccc4ncnc(Nc5ccc(F)c(Cl)c5)c4c3)cc2)CC1    > 10 µM
O=C(Nc1ccccc1)Nc1ccc2ncnc(Nc3cccc(C(F)(F)F)c3)c2c1    > 10 µM
Cc1ccc(NC(=O)Nc2ccc3ncnc(Nc4cccc(C(F)(F)F)c4)c3c2)cc1    > 10 µM
CCN(CC)c1ccc(NC(=O)Nc2ccc3ncnc(Nc4cccc(C(F)(F)F)c4)c3c2)cc1    6.46 µM
CN1CCN(C(=O)c2ccc(NC(=O)Nc3ccc4ncnc(Nc5cccc(C(F)(F)F)c5)c4c3)cc2)CC1    > 10 µM
C#Cc1cccc(Nc2ncnc3ccc(NC(=O)Nc4ccc(CN5CCOCC5)cc4)cc23)c1    > 10 µM
C[C@@H](Nc1ncnc2ccc(NC(=O)Nc3ccc(CN4CCN(C)CC4)cc3)cc12)c1ccccc1    > 10 µM
C#Cc1cccc(Nc2ncnc3ccc(NC(=O)Nc4ccc(CN(CC)CC)cc4)cc23)c1    1.24 µM
O=C(Nc1cccc(CN2CCCCC2)c1)Nc1ccc2ncnc(Nc3cccc(C(F)(F)F)c3)c2c1    1.33 µM
CN1CCN(C(=O)c2ccc(NC(=O)Nc3ccc4ncnc(Nc5ccc(OCc6cccc(F)c6)c(Cl)c5)c4c3)cc2)CC1    > 10 µM

Per the records, this molecule ( CN1CCN(Cc2ccc(NC(=O)Nc3ccc4ncnc(Nc5cccc(C(F)(F)F)c5)c4c3)cc2)CC1 ) has IC50 equal to 2.41 µM

Per the records, this molecule ( O=C(Nc1ccc(CN2CCCCC2)cc1)Nc1ccc2ncnc(Nc3cccc(C(F)(F)F)c3)c2c1 ) has IC50 equal to 1.55 µM

Per the records, this molecule ( C#Cc1cccc(Nc2ncnc3ccc(NC(=O)Nc4ccc(C(=O)N5CCN(C)CC5)cc4)cc23)c1 ) has IC50 equal to > 10 µM

Per the records, this molecule ( CN1CCN(Cc2ccc(NC(=O)Nc3ccc4ncnc(Nc5cccc(C(=O)N6CCCC6)c5)c4c3)cc2)CC1 ) has IC50 equal to > 10 µM
